Source: ChEMBL document CHEMBL4627255

# Organism: Homo sapiens
# Run description: Selectivity index, ratio of IC50 for JAK3 (unknown origin) to IC50 for TYK2 (unknown origin)
Readout label: Ratio IC50

N#C[C@]1(C2CC2)C(=O)N2C[C@H]1COCC(=O)NCc1cccc(n1)Nc1cc2ccn1    15
N#C[C@]1(C2CC2)C(=O)N2C[C@H]1COCC(=O)NCCc1cccc(n1)Nc1cc2ccn1    5.7

[I] N#C[C@]1(C2CC2)C(=O)N2C[C@H]1COC/C=C\COCc1cccc(n1)Nc1cc2ccn1
[II] N#C[C@]1(C2CC2)C(=O)N2C[C@H]1COCC(=O)NCCCc1cccc(n1)Nc1cc2ccn1
[III] N#C[C@]1(C2CC2)C(=O)N2C[C@H]1COC/C=C/COCc1cccc(n1)Nc1cc2ccn1
[IV] N#C[C@]1(C2CC2)C(=O)N2C[C@H]1COCCCCOCc1cccc(n1)Nc1cc2ccn1
Your job: order these 4 records by Ratio IC50, ascending. Put the labels in the requested order and list them out.
II, III, I, IV
(II: 7.8, III: 15, I: 52, IV: 82)
